All values here come from patent US20170174769A1.

- EXPERIMENTAL TARGET: T1, extracellular domain of human FGFR1c expressed with C-terminal V5 and hexahistidine tags (human, UniProt P11362 22-376)
- T1 construct: also called hFGFR1c-V5-6His
- T1 sequence: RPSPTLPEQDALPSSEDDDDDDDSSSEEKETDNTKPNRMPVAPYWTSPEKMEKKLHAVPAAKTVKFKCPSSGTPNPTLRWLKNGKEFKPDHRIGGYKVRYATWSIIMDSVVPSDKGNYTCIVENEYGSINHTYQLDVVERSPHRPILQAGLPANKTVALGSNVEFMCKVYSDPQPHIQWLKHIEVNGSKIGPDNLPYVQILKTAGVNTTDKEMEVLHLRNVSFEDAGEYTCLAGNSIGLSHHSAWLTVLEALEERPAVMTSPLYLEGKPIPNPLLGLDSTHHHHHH
- TEST DESCRIPTION: SPR, mAb captured, 37 C
Parameter 180 nM hFGFR1c-V5-6His Bind (RU): see the listing below.
Unit RU implied. Number only.

See these solved cases before continuing.
Briefly, 180 nM hFGFR1c-V5-6His Bind (RU) measured for H4H8837P (antibody, V domains shown, human IgG4 Fc (H4H prefix)) VH: QVQLVESGGGVVQPGRSLRLSCAASGFTFNSYAMHWVRQAPGMGLEWVAVISSDGSNKYYADSVRGRFTVSRDNSKNTLYLQMNSLRSEDTAVYYCAKDGRGYSSFSHFGMDVWGQGTTVTVSS VL: DIQMTQSPSTLSASVGDRVTITCRASQSIGSWLAWYQQKPGKAPKLLIYKTSSLESGVPSRFSGSGSGTEFTLTISSLQPDDFASYYCQQYNSYSFGQGTKVEIK : 0.1

Value of measured 180 nM hFGFR1c-V5-6His Bind (RU) for the entry H2aM8093N (antibody, V domains shown, mouse IgG2 Fc (H2aM prefix)) VH: QVQLVQSGAEVKRPGSSVKVSCKASGDTFSTYAISWVRQAPGQGLEWMGGIIPVFGTTNYAQKFQDRVTITTDESTRTAYMELSSLRSEDTAVYYCAGIAGPDYWGQGTLVTVSS VL: DIQMTQSPSSLSASVGDRVTITCRASQGIRNYLAWFQQKPGKAPKSLIYLATSLQSGVPSKFSGSGSGTDFTLTISSLQPEDFATYYCQQYYSYPWTFGQGTKVEIK : 0.6

Now turn to the next binder.
For H4H8856P (antibody, V domains shown, human IgG4 Fc (H4H prefix)) VH: QVQLQESGPGLVKPSETLSLTCTVSGGSISSYYWSWIRQPPGKGLEWIAYIYYSGITKYNPSLKSRVTISADTSKNQFSLKLSSVTAADTAVYYCARHGIFGVMEYFQRWGQGTLVTVSS VL: DIQMTQSPSSLSASIGDRVTITCQASQDISNFLNWYQQKPGKAPTLLIYDVSNMETGVPSRFSGSGYGTDFTLTISSLKPEDIATYYCQQYDNIPLTFGGGTKVEIK the binder record lists 180 nM hFGFR1c-V5-6His Bind (RU) as 0.3
